# credit: patent US9340577

- TESTED_SYSTEM: T1, H-2Ld (mouse)
- T1 chain 1: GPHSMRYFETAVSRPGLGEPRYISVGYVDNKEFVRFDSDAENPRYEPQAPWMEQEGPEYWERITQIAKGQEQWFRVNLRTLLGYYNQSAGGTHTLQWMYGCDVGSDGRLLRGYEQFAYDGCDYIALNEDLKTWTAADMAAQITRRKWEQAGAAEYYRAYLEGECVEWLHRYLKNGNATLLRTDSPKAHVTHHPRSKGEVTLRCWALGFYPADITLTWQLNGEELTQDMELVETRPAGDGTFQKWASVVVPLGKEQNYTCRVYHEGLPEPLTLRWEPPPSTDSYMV
- T1 chain 2: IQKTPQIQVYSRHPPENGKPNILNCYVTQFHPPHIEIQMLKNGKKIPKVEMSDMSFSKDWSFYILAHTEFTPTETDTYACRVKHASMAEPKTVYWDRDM
- ASSAY_DETAILS: competition
- RECORDED_CONDITIONS: modification not given
RESULT_TYPE: IC50 (nM)

1. YPHFMPTNL [1164.03] :: 7.5
